Source of measurements: patent US20160194299A1

experiment: in vitro; details: African green monkey
metric-name: CC50

CCOC(=O)NC(=O)c1ccsc1NC(=O)c1nc2c(s1)CCN(C)C2 | > 50 µg/mL

Form field: reported CC50 of CCOC(=O)N(C)C(=O)c1ccsc1NC(=O)c1nc2cnccc2s1 < 25 µg/mL

Then this molecule: CCOC(=O)NC(=O)c1ccsc1NC(=O)c1cnc2c(Br)cnn2c1 25 to 50 µg/mL

---

Listing of recorded CC50 by entry.
experiment: in vitro; settings: African green monkey

Form field: reported CC50 of CCC(OC(=O)NC(=O)c1ccsc1NC(=O)c1nc2ccccc2s1)c1ccccc1 (stereo not drawn) [Compound 307] < 25 µg/mL

Then this compound: CCOC(=O)NC(=O)c1ccsc1NC(=O)c1ccnc(NC(=O)C(C)(C)C)c1 [Compound 60] > 50 µg/mL

Then this compound: CCOC(=O)NC(=O)c1ccsc1NC(=O)c1csc(C(F)(F)F)n1 [Compound 131] < 25 µg/mL

Then this compound: CC(C)OC(=O)NC(=O)c1ccsc1NC(=O)c1ccc2nonc2c1 [Compound 403] < 25 µg/mL

Then this compound: O=C(Nc1sccc1C(=O)NC(=O)N1CCCCC1)c1nc2cnccc2s1 [Compound 428] > 50 µg/mL

Then this compound: CCOC(=O)NC(=O)c1ccsc1NC(=O)c1nc2c(N3CCN(C)CC3)nccc2s1 [Compound 262] 25 to 50 µg/mL

Then this compound: CC(OC(=O)NC(=O)c1ccsc1NC(=O)c1nc2ccccc2s1)C(F)(F)F (stereo not drawn) [Compound 24] < 25 µg/mL

Then this compound: CCOC(=O)NC(=O)c1ccsc1NC(=O)Nc1nc2ccccc2s1 [Compound 312] 25 to 50 µg/mL

Then this compound: CCC(CC)OC(=O)NC(=O)c1ccsc1NC(=O)c1nc2cnccc2s1 [Compound 328] < 25 µg/mL

Then this compound: CC(C)OC(=O)NC(=O)c1cc(F)sc1NC(=O)c1nc2cnccc2s1 [Compound 104] < 25 µg/mL

Then this compound: CCOC(=O)NC(=O)c1ccsc1NC(=O)Cc1nc2ccccc2s1 [Compound 238] 25 to 50 µg/mL

Then this compound: CCOC(=O)NC(=O)c1ccsc1NC(=O)c1cc(C(F)(F)F)nc2ccccc12 [Compound 117] < 25 µg/mL

Then this compound: O=C(Nc1sccc1C(=O)OC1CCCC1)c1nc2ccccc2s1 [Compound 429] > 50 µg/mL

Then this compound: CCOC(=O)NC(=O)c1ccsc1NC(=O)c1nsc2ccccc12 [Compound 378] 25 to 50 µg/mL

Then this compound: CCOC(=O)NC(=O)c1ccsc1NC(=O)c1ccc2sc(N3CCOCC3)nc2c1 [Compound 58] > 50 µg/mL

Then this compound: O=C(NC(=O)c1ccsc1NC(=O)c1nc2cnccc2s1)OC1CCOC1 (stereo not drawn) [Compound 102] > 50 µg/mL

Then this compound: CCOC(=O)NC(=O)c1ccsc1NC(=O)c1ccc2scnc2c1 [Compound 43] > 50 µg/mL

Then this compound: CCOC(=O)NC(=O)c1cc(CC(=O)OC)sc1NC(=O)c1nc2cnccc2s1 [Compound 276] 25 to 50 µg/mL
